All values here come from paper PMC7700746.

target: αvβ3 integrin (Homo sapiens, UniProt P05106+P06756); experiment: Cell adhesion assay, SW480 transfected with human β3 adhering to fibrinogen; type: cell-based
Sequence (P06756 31-889 limits assumed): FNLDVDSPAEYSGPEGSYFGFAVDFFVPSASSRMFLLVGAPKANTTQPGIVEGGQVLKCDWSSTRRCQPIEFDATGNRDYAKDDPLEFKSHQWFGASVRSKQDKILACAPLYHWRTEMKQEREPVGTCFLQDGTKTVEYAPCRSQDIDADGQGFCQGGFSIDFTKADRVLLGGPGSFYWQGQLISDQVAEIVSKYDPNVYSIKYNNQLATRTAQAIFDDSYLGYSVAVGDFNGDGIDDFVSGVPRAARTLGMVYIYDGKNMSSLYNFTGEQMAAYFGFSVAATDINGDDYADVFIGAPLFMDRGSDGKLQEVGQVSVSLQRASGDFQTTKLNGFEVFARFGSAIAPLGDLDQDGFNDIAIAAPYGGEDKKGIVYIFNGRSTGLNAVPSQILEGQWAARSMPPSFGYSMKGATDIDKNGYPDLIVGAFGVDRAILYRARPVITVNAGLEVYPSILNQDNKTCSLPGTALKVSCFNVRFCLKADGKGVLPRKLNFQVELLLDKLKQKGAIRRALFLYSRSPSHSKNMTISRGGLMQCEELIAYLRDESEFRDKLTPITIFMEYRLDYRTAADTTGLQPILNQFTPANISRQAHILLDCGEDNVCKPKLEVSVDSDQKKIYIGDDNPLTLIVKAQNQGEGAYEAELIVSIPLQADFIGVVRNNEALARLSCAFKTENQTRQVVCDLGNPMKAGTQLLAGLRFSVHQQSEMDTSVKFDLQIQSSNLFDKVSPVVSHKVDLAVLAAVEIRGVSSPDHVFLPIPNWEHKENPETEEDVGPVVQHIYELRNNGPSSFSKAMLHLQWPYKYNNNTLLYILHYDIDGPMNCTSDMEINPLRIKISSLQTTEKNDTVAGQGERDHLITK
Sequence (P06756 891-1048 partner limits assumed): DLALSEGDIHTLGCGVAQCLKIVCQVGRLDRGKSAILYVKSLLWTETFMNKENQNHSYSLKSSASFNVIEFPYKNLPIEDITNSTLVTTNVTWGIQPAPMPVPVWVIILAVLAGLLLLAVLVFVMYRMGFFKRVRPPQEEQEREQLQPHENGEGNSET
Sequence (P05106 27-788): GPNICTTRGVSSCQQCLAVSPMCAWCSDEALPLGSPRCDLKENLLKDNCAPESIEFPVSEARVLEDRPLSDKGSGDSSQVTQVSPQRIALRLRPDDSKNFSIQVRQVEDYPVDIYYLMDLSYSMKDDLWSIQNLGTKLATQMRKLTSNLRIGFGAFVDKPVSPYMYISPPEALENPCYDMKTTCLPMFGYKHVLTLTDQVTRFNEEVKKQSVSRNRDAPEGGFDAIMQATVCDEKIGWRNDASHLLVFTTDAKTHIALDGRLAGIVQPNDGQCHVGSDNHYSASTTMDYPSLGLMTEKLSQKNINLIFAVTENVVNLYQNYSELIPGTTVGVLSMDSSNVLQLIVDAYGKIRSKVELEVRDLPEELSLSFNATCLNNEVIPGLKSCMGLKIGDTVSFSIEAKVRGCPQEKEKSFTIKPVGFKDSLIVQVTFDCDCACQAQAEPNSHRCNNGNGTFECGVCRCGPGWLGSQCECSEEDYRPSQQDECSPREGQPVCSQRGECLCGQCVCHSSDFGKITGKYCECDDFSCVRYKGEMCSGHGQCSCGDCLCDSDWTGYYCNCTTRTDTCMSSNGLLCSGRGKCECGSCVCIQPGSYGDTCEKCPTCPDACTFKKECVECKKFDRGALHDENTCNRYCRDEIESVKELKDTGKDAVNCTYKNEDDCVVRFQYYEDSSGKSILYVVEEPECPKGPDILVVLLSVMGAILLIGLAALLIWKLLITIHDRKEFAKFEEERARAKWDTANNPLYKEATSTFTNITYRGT
endpointLabel: selectivity against αvβ3 integrin in cell adhesion assay (in words)

>  <givenSmiles>
N=C(N)Nc1cccc(C(=O)NNC(=O)NC[C@H](NC(=O)[C@@H]2CCCN2S(=O)(=O)c2ccccc2)C(=O)O)c1

>  <measValue>
not still satisfactory

$$$$
>  <givenSmiles>
N=C(N)Nc1cccc(C(=O)NCC(=O)NC[C@H](NC(=O)[C@@H]2CCCN2S(=O)(=O)c2ccccc2)C(=O)O)c1

>  <measValue>
not still satisfactory

$$$$
